experiment: Solvent solubility screen of the compound of Formula II; format: physicochemical; settings: IPA, 40 °C, organic solvent or mixture, thermodynamic from solid; read-out: Approximate solubility
Value Type: solubility

Suppose we examine the molecule COc1ccc(CN2C3CC2CN(c2ccc(-c4cc(OCC(C)(C)O)cn5ncc(C#N)c45)cn2)C3)cn1 ; what solubility value has been reported?
< 5000 µg/mL

---

experiment: Stability screening of freebase and selected salts of Formula I, 40° C. and 75% RH, weekly HPLC over 4 weeks; conditions: 40° C. and 75% RH; T = 0 to 4 weeks
Value Type: Absolute % change (%)
Numeric only. Scale: %

Guide cases for Absolute % change, answers given:
* COc1ccc(CN2CCN(c3ccc(-c4cc(-c5cnn(C)c5)cn5ncc(C#N)c45)cn3)CC2)cn1.Cl [HCl salt] | 0.0
* COc1ccc(CN2CCN(c3ccc(-c4cc(-c5cnn(C)c5)cn5ncc(C#N)c45)cn3)CC2)cn1.O=C(O)C[C@@H](O)C(=O)O [D-malic acid salt] | 0.6
* COc1ccc(CN2CCN(c3ccc(-c4cc(-c5cnn(C)c5)cn5ncc(C#N)c45)cn3)CC2)cn1.O=C(O)C[C@H](O)C(=O)O [L-malic acid salt] | 0.5

Suppose we examine the compound COc1ccc(CN2CCN(c3ccc(-c4cc(-c5cnn(C)c5)cn5ncc(C#N)c45)cn3)CC2)cn1 [Freebase I] ; what Absolute % change value has been reported?
0.4
